Source: ChEMBL document CHEMBL6087460

# assayInfo: Retention time of compound by RP-HPLC method
# Format: physicochemical
Measured Retention_time by item
readoutName: Retention_time (min)

# substance, readoutName, experimentalResult
rows = [
    ("H-LGRLGRLGRLGRLGR-OH", "Retention_time", 16.23),
    ("H-RLRLRLRLRLRLRL-OH", "Retention_time", 16.72),
    ("H-KVKVKVKVKV-OH", "Retention_time", 10.88),
    ("H-RLVRLVRLVRLV-OH", "Retention_time", 19.25),
]

====

# System: Bacillus subtilis
# assayInfo: Antibacterial activity against Bacillus subtilis 6633 incubated for 16 to 18 hrs by broth dilution assay
# Format: functional
# assayConditions: time 16-18 hrs
Measured MIC by item

# substance, prefixOperator, MIC [µM]
measured = [
    ("H-GRLVGRLVGRLV-OH", ">", 155),
    ("H-KVLGRKVLGR-OH", ">", 178),
    ("H-LGRLVLGRLV-OH", ">", 183),
    ("H-VLGRLVLGRLVLGRL-OH", ">", 122),
    ("H-KVLKVLKVLKVL-OH", "=", 9),
    ("H-KVLGKVLGKVLGKVLG-OH", "=", 15.6),
    ("H-LGRLLGRLLGRL-OH", "=", 9.4),
    ("H-LGRLGRLGRLGRLGR-OH", "=", 30.3),
    ("H-VLGRVLGRVLGR-OH", ">", 155),
]
